Exercise: for every item that follows, state its recorded Activity.
protocol: Reactive carbonyl species trapping activity of compound assessed as MGO adduct formation at 10 mM preincubated for 24 hrs with MGO measured after 0.25 hrs by LCMS analysis
Type: physicochemical
details: 10000 µM
Use % as the unit, but write only the number.

Problem: Give the measured Activity of Cc1c(O)c(=O)ccn1CCCNC(=O)CCC(N)CN.Cl.Cl (stereo unspecified) .
Result: 95

Problem: # iterate: Cl.Cl.NCC(N)CCCCNC(=O)CCn1cccc(O)c1=O (stereo unspecified)
Result: 98

Problem: # iterate: Cl.Cl.NCC(N)CCCCNC(=O)c1cc(O)c(O)c(O)c1 (stereo unspecified)
Result: 90

Problem: # iterate: Cc1c(O)c(=O)ccn1CCC(=O)NCCCCC(N)CN.Cl.Cl (stereo unspecified)
Result: 99

Problem: # iterate: NCCC(=O)N[C@@H](Cc1cnc[nH]1)C(=O)O [CARNOSINE]
Result: 46

Problem: # iterate: Cl.Cl.NCC(N)CC(=O)N1CCN(C(=O)CCn2cccc(O)c2=O)CC1 (stereo unspecified)
Result: 99
